All figures here come from PubChem BioAssay.

Give RAM network inhibition for every item shown.
- ASSAY_COMMENT: RAM signaling pathway blockade in yeast – S. cerevisiae, Pdr1DBD-CYC8 efflux-inhibited sensitized strain, primary screen (AID 1298);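 also: 0% = DMSO untreated cells without growth and 100% = 10 µM 1-NA-PP1 full growth; higher means more yeast growth rescued from 5-FOA killing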
- EXPERIMENTAL_SETUP: S. cerevisiae cbk1-as DSE1-URA3 strain, 5-FOA growth OD615, 2 d; at 50 µM; active compounds read high
Give bare numbers, in %.

>>> experimental_result("Cc1ccc(-c2oc3ccccc3c(=O)c2O)cc1")
0.63
>>> experimental_result("CCOc1ccc(N(C(C)C(=O)NC2CCCCCC2)S(C)(=O)=O)cc1 (configuration not stated)")
6.94
>>> experimental_result("COC(=O)c1ccc(-n2nnnc2SCc2nn[nH]n2)cc1")
-1.09
>>> experimental_result("CC1=C(C(=O)OC2CCCC2)C(c2ccc(C)o2)C2=C(CC(c3cccs3)CC2=O)N1 (configuration not stated)")
2.7
>>> experimental_result("CC(=O)c1cccc(NC(=O)Nc2cc3sccc3n2C)c1")
5.08
>>> experimental_result("CCOC(=O)c1sc(NC(=O)COC(=O)c2ccco2)nc1C")
4.87
>>> experimental_result("COc1ccc(S(=O)(=O)Cc2ccc(C(=O)N3CCOCC3)o2)cc1")
1.62
>>> experimental_result("CCOC(=O)c1ccccc1NC(=O)c1cccnc1")
2.22
>>> experimental_result("CCCCN(C)CCNC(=O)Cn1ncc2c(=O)oc3ccc(C)cc3c21")
3.72
>>> experimental_result("CC(Cc1c[nH]c2ccccc12)NC(=O)C1CCCNC1=O (configuration not stated)")
0.66

Below is a list of compounds. For each, state its recorded RAM network inhibition.
1. O=C(c1ccc(Cl)s1)N1CCN(c2nc3ccccc3s2)CC1
2. CCCCNC(=O)c1cc2c(-c3ccc(Cl)cc3)nn(C)c2s1
3. C/C=C/CSc1nc2c(c(=O)[nH]c(=O)n2C)n1Cc1ccc(C)cc1
4. O=C(Nc1ccc2c(c1)OCCO2)c1cnc2n(c1=O)CCS2
5. COc1ccc(-c2[nH]c(-c3cccc(OC)c3)nc2SCC(=O)NCc2ccco2)cc1
6. Cc1ccc(NC(=O)Cn2cc3c(n2)CCC(C)C3)cc1 (configuration not stated)

Reply text:
1: 2.18; 2: 4.05; 3: 2.77; 4: 4.19; 5: 11.2; 6: 1.64

I'm hoping you can list RAM network inhibition for every compound here, please.
1. Cc1cccc(N2CCN(c3nc4ccc(Cl)cc4n4cnnc34)CC2)c1C
2. O=C(NCc1ccc2c(c1)OCO2)C1CCC(CNc2c(N3CCCCC3)c(=O)c2=O)CC1 (configuration not stated)
3. C/C=C/COC(=O)c1[nH]c2c(c1C)C(=O)CC(c1ccc(N(C)C)cc1)C2 (configuration not stated)
4. CCN(CC)CCCN1C(=O)C(O)=C(C(=O)c2ccco2)C1c1ccc(C)o1 (configuration not stated)
5. CC1Cc2nc(SCC(=O)Nc3ccc4c(c3)OCO4)n(-c3ccc(F)cc3)c(=O)c2S1 (configuration not stated)

Reply text:
1. -0.95
2. -0.46
3. 4.88
4. 3.48
5. 6.73

Inquiry: What value of RAM network inhibition has been reported for the following compound? COc1ccc(OC)c(C(=O)c2ccc(C(=O)O)cc2)c1
Reply text: 0.12

* * *

- ASSAY_COMMENT: H69AR cell proliferation blockers – human, duplicate replicates, primary screen (AID 580);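 also: 100% = mean luminescence of untreated wells and 0% = no signal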
- EXPERIMENTAL_SETUP: H69AR lung tumor cells viability, ATP luminescence, 72 h; at 10 µM; active compounds read low
PROPERTY_NAME: viability (%)
Answers are plain numbers, in %.

>>> experimental_result("O=C(C1CCCN1S(=O)(=O)c1cccc2cccnc12)N1CCn2c1nc1ccccc12 (stereo not given)")
94.1
>>> experimental_result("COCCOC(=O)C1=C(C)N=c2s/c(=C\\c3cccs3)c(=O)n2C1c1cccs1 (stereo not given)")
71.9
>>> experimental_result("COc1ccc2c(c1)CCc1cc(C(=O)N3CCN(c4ccc(N5CCOCC5)nn4)CC3)sc1-2")
63.7
>>> experimental_result("Cc1nnc(SCCn2c(N3CCC(Cc4ccccc4)CC3)nc3c2c(=O)[nH]c(=O)n3C)s1")
79.4
>>> experimental_result("Cc1cc(C)n2c(SCC(=O)Nc3cc(C)on3)nnc2n1")
101

Dear colleague, could you send me viability for each of the items below? Thanks.
1. CCOC(=O)c1cccc(NC2c3ccccc3C(=O)N2Cc2ccco2)c1 (stereo not given)
2. COc1ccc(-c2nc(CSCC(=O)N3CCc4ccccc4C3)c(C)o2)cc1OC
3. CS(=O)(=O)N(Cc1ccco1)CC(O)Cn1c2ccccc2c2ccccc21 (stereo not given)
4. O=C(Cn1ncc2c1-c1ccccc1OC2)N1CCc2ccccc21
5. CC(NC(=O)C1CC1)C(c1cccs1)N1CCN(c2ccccc2)CC1 (stereo not given)

Reply text:
1: 82.1; 2: 92.6; 3: 80.5; 4: 84.3; 5: 89.5
